- procedure summary: The compound was evaluated for rate constant at 70 deg. C
- Assay type: ADME
Entries and their Rate constant values follow.
Field format: number, assumed h⁻¹, no unit text.

O=[N+]([O-])c1ccc(S(=O)(=O)N2CC#Cc3ccccc3C#CCC2)cc1    0.0143

Any idea what its Rate constant is? The molecule is O=C(c1ccc([N+](=O)[O-])cc1)N1CC#Cc2ccccc2C#CCC1
0.0051

Follow-up entry: O=[N+]([O-])c1ccc(S(=O)(=O)N2CC#Cc3ccccc3C#CCC2)c([N+](=O)[O-])c1
0.0244

Query O=C(c1ccccc1)N1CC#Cc2ccccc2C#CCC1 next
0.0037
